# System: NCI-H441
# measurementProtocol: relative viability (nuclei count vs DMSO), 5 days (fraction); higher = more cells survive
# assayContext: first compound 500 µM
quantityKind: relative viability

Report relative viability on NCI-H441 for this entry: O=C(O)CCCCC(CCSCc1ccccc1)SCc1ccccc1 (stereo not given) [CPI-613] + O=C(CCCCCCC(=O)Nc1ccccc1)NO [Vorinostat] (partner 1 µM)
0.0026

Quote relative viability with test system NCI-H441 for O=C(O)CCCCC(CCSCc1ccccc1)SCc1ccccc1 (stereo not given) [CPI-613] + CCNC(=O)c1noc(-c2cc(C(C)C)c(O)cc2O)c1-c1ccc(CN2CCOCC2)cc1 [Luminespib] (partner 0.01 µM)
0.0495

Look up and report measured relative viability (NCI-H441) for the following molecule: O=C(O)CCCCC(CCSCc1ccccc1)SCc1ccccc1 (stereo not given) [CPI-613] + CS(=O)(=O)N1CCN(Cc2cc3nc(-c4cccc5[nH]ncc45)nc(N4CCOCC4)c3s2)CC1 [Pictilisib] (partner 1 µM)
0.0254

Fetch value of relative viability on NCI-H441 for O=C(O)CCCCC(CCSCc1ccccc1)SCc1ccccc1 (stereo not given) [CPI-613] + CC(C)C[C@H](NC(=O)[C@H](Cc1ccccc1)NC(=O)c1cnccn1)B(O)O [Bortezomib] (partner 0.002 µM) .
0.005

Report its relative viability with NCI-H441 as the test system: O=C(O)CCCCC(CCSCc1ccccc1)SCc1ccccc1 (stereo not given) [CPI-613] + Cc1nc(Nc2ncc(C(=O)Nc3c(C)cccc3Cl)s2)cc(N2CCN(CCO)CC2)n1 [Dasatinib] (partner 0.075 µM)
0.044

---

# Tested on: NCI-H661
# measurementProtocol: relative viability (nuclei count vs DMSO), 5 days (fraction); higher = more cells survive
# assayContext: first compound 0.8 µM
# class assignment by measured relative viability: bin A = under 0.5, bin B = from 0.5 up to 0.8, bin C = 0.8 and over

Using the reported relative viability, which band applies to O=c1[nH]c2ccccc2n1C1CCN(CCCC(c2ccc(F)cc2)c2ccc(F)cc2)CC1 [Pimozide] + CS(=O)(=O)N1CCN(Cc2cc3nc(-c4cccc5[nH]ncc45)nc(N4CCOCC4)c3s2)CC1 [Pictilisib] (partner 1 µM) ?
bin A

Place this compound in its band: Cc1cnc(-c2cnc(NCCNc3ccc(C#N)cn3)nc2-c2ccc(Cl)cc2Cl)[nH]1 + O=C(c1cc(Cc2n[nH]c(=O)c3ccccc23)ccc1F)N1CCN(C(=O)C2CC2)CC1 [Olaparib] (partner 8 µM)
bin B

Could you tell me which band O=c1[nH]c2ccccc2n1C1CCN(CCCC(c2ccc(F)cc2)c2ccc(F)cc2)CC1 [Pimozide] + Cc1cc(Nc2cc(N3CCN(C)CC3)nc(Sc3ccc(NC(=O)C4CC4)cc3)n2)n[nH]1 [Tozasertib] (partner 0.1 µM) belongs to?
bin A

Could you tell me which band O=c1[nH]c2ccccc2n1C1CCN(CCCC(c2ccc(F)cc2)c2ccc(F)cc2)CC1 [Pimozide] + Cc1nc(NC(=O)N2CCC[C@H]2C(N)=O)sc1-c1ccnc(C(C)(C)C(F)(F)F)c1 [Alpelisib] (partner 2 µM) belongs to?
bin B

Into which category would you place O=c1[nH]c2ccccc2n1C1CCN(CCCC(c2ccc(F)cc2)c2ccc(F)cc2)CC1 [Pimozide] + Cc1nc(Nc2ncc(C(=O)Nc3c(C)cccc3Cl)s2)cc(N2CCN(CCO)CC2)n1 [Dasatinib] (partner 0.075 µM) ?
bin C

Hi there! Could you help me figure out the category for Cc1cnc(-c2cnc(NCCNc3ccc(C#N)cn3)nc2-c2ccc(Cl)cc2Cl)[nH]1 + CC(=O)c1c(C)c2cnc(Nc3ccc(N4CCNCC4)cn3)nc2n(C2CCCC2)c1=O [Palbociclib] (partner 0.5 µM) please?
bin A

Assign a bin to Cc1cnc(-c2cnc(NCCNc3ccc(C#N)cn3)nc2-c2ccc(Cl)cc2Cl)[nH]1 + CS(=O)(=O)N1CCN(Cc2cc3nc(-c4cccc5[nH]ncc45)nc(N4CCOCC4)c3s2)CC1 [Pictilisib] (partner 1 µM)
bin A

Could you place Cc1cnc(-c2cnc(NCCNc3ccc(C#N)cn3)nc2-c2ccc(Cl)cc2Cl)[nH]1 + Cc1nc(NC(=O)N2CCC[C@H]2C(N)=O)sc1-c1ccnc(C(C)(C)C(F)(F)F)c1 [Alpelisib] (partner 2 µM) in its proper category? Many thanks.
bin B

Lab note: sort Cc1cnc(-c2cnc(NCCNc3ccc(C#N)cn3)nc2-c2ccc(Cl)cc2Cl)[nH]1 + C[C@@H](Oc1cc(-c2cnn(C3CCNCC3)c2)cnc1N)c1c(Cl)ccc(F)c1Cl [Crizotinib] (partner 1 µM) into the matching relative viability band.
bin C

Assign a bin to O=c1[nH]c2ccccc2n1C1CCN(CCCC(c2ccc(F)cc2)c2ccc(F)cc2)CC1 [Pimozide] + C[C@]1(O)C[C@@H](c2nc(-c3ccc4ccc(-c5ccccc5)nc4c3)c3c(N)nccn32)C1 [Linsitinib] (partner 1 µM)
bin B

Assign a bin to O=c1[nH]c2ccccc2n1C1CCN(CCCC(c2ccc(F)cc2)c2ccc(F)cc2)CC1 [Pimozide] + O=C(CCCCCCC(=O)Nc1ccccc1)NO [Vorinostat] (partner 1 µM)
bin B
